- test target: Misshapen-like kinase 1 (Homo sapiens) (UniProt Q8N4C8)
- Sequence (Q8N4C8 whole entry, looked up): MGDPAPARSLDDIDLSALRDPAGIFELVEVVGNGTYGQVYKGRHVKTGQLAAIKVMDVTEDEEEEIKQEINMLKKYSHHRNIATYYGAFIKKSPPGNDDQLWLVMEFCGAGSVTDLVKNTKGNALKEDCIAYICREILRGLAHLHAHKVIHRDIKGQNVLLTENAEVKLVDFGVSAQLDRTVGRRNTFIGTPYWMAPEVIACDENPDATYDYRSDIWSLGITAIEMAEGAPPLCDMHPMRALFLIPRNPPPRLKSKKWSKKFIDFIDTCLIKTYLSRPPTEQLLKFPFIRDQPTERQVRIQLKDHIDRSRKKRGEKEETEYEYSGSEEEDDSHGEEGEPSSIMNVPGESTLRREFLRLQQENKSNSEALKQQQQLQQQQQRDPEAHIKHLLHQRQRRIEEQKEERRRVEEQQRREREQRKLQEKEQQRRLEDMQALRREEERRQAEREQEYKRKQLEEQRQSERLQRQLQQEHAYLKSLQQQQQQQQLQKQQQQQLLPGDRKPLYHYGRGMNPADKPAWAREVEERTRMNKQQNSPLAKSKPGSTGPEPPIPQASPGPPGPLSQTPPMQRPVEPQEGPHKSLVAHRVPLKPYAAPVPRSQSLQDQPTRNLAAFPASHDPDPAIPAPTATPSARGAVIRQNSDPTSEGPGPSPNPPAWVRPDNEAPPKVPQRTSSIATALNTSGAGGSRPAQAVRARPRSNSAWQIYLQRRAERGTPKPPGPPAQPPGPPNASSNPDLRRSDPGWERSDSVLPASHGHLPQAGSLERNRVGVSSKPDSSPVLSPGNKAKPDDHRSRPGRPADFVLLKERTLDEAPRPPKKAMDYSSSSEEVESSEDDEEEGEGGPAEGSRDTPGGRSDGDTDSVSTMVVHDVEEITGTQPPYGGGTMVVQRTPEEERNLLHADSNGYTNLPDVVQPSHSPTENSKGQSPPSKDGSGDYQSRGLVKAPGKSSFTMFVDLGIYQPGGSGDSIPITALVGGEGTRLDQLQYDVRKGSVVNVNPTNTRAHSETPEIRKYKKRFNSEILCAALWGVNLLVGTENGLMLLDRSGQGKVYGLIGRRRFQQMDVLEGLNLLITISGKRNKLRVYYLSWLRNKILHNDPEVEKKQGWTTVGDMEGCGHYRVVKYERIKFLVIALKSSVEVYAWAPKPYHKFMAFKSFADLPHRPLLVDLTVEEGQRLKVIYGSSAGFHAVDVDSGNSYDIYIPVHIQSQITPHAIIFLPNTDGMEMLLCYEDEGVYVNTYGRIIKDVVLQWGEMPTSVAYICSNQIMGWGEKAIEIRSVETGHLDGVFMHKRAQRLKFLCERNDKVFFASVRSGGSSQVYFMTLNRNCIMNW
- test settings: at 0.1 µM
Recorded measurements of inhibition, one per entry
Return type: number; implicit unit %.

Sample records with inhibition:
>  <line notation>
Cc1nn(C)c2cc(N(C)c3ccnc(Nc4cccc(S(N)(=O)=O)c4)n3)ccc12

>  <test target>
Misshapen-like kinase 1 (Homo sapiens) (UniProt Q8N4C8)

>  <unit annotation>
%

>  <inhibition>
44.2

$$$$
>  <line notation>
Fc1cccc(COc2ccc(Nc3ncnc4cc(-c5ccc[nH]5)sc34)cc2Cl)c1

>  <test target>
Misshapen-like kinase 1 (Homo sapiens) (UniProt Q8N4C8);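 also: mean inhibition value reported, from GSK PKIS kinase profiling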

>  <unit annotation>
%

>  <inhibition>
6.08

$$$$

# context switch: different molecule, same inhibition
Q: Quick one: inhibition of `COc1cc2c(cc1Nc1nc(N3CCc4ccccc43)c3cc[nH]c3n1)N(C(=O)CN(C)C)CC2` ?
A: 3.79
